The measurements presented in this section are drawn from patent US9296760B2.

Parameter: melting point. Scope: all listed entries.

The following compounds have reported results that may help.
[[record]]
compound = "CN1CC(=O)Nc2ncc(/C=C/C(=O)N3CCC=C(c4cccs4)CC3)cc2C1 [compound 33]"
readout = "melting point"
endpoint_result = "125 to 126 °C"

[[record]]
compound = "COc1ccc(F)cc1C1=CCCN(C(=O)/C=C/c2cnc3c(c2)COCC(=O)N3)CC1 [compound 32]"
readout = "melting point"
endpoint_result = "234 °C"


Query string: Which melting point reading was recorded for the compound CN1CC(=O)Nc2ncc(/C=C/C(=O)N3CC=C(c4cccs4)CCC3)cc2C1 [compound 43] ?
Result string: 212 to 213 °C

Query string: Dear colleague, I am looking for the recorded melting point of the following compound: CC(=O)N1CCN2Cc3cc(/C=C/C(=O)N4CCC=C(c5ccccc5)CC4)cnc3NC(=O)C2C1 (stereo not shown) [compound 47]
Result string: 208 °C

Query string: Please report the recorded melting point for Cn1nccc1C(=O)Nc1ccc(/C=C/C(=O)N2CCC=C(c3ccccc3)CC2)cn1 [compound 10] .
Result string: 138 °C
